- experiment: CNS penetration: total and unbound drug concentrations in tumor regions, CSF and plasma (LC-MS/MS, equilibrium dialysis);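 note: drug levels in patient tumor tissue from contrast-enhancing and non-enhancing regions sampled under MRI-guided neuronavigation, with plasma and CSF drawn during surgical resection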
- conditions: human, enhancing tumor and plasma, oral, 2.5 mg
measured_quantity: Kp at 120 h

Inquiry: Look up Kp at 120 h for this molecule: CO[C@H]1C[C@@H]2CC[C@@H](C)[C@@](O)(O2)C(=O)C(=O)N2CCCC[C@H]2C(=O)O[C@H]([C@H](C)C[C@@H]2CC[C@@H](OCCO)[C@H](OC)C2)CC(=O)[C@H](C)/C=C(\C)[C@@H](O)[C@@H](OC)C(=O)[C@H](C)C[C@H](C)/C=C/C=C/C=C/1C
Reply text: 0.62
